Reference source: patent US6762170B1

Listed molecules paired with reported A3 (EC50 values as a ratio of that of NECA)
molecular target: Adenosine 3 receptor (Homo sapiens); construct: expressed in transfected cells; host or cells: Chinese hamster ovary (CHO) cells, co-transfected with a CRE-SPAP reporter; assay: Agonist activity against adenosine 3 receptor subtype (CHO cells, forskolin-enhanced cAMP, SPAP reporter); format: cell-based; settings: EC50 ratio to NECA; transfected CHO cells, forskolin-enhanced cAMP reflected by SPAP
Sequence (P0DMS8 whole entry): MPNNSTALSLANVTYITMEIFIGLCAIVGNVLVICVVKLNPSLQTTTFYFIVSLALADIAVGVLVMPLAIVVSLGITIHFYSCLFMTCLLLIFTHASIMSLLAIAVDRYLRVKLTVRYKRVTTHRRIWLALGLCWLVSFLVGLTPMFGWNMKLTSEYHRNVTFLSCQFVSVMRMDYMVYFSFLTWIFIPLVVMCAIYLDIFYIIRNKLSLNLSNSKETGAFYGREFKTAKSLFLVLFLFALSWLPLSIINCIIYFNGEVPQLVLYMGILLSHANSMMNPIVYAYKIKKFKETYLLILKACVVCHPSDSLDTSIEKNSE

Worked cases, answers included:
| molecule | experimental system | assay result |
| --- | --- | --- |
| CCc1cc([C@H]2O[C@@H](n3cnc4c(NCC(c5ccccc5)c5ccccc5)nc(NCCN5CCCCC5)nc43)[C@H](O)[C@@H]2O)on1.O=CO.O=CO [Example 1] | Adenosine 3 receptor (Homo sapiens) | >436 |
| CCc1cc(C2OC(n3cnc4c(NC5CCS(=O)(=O)CC5)nc(NCCNC(=N)N)nc43)C(O)C2O)on1 (stereo not shown) [Example 26] | Adenosine 3 receptor (Homo sapiens) | >286 |

Exercise: Field request: A3 (EC50 values as a ratio of that of NECA) | item: CCc1cc(C2OC(n3cnc4c(NC(CO)C(C)C)nc(NCCN5CCCC5)nc43)C(O)C2O)on1 (stereo not shown) [Example 69]
Solution: >180

Exercise: Field request: A3 (EC50 values as a ratio of that of NECA) | item: CCc1cc(C2OC(n3cnc4c(NCCC(C)(C)C)nc(NCCN5CCOCC5)nc43)C(O)C2O)on1 (stereo not shown) [Example 42]
Solution: >395

Exercise: Field request: A3 (EC50 values as a ratio of that of NECA) | item: CCc1cc(C2OC(n3cnc4c(NC5CCOCC5)nc(NC(CO)Cc5ccccc5)nc43)C(O)C2O)on1 (stereo not shown) [Example 15]
Solution: >146

Exercise: Field request: A3 (EC50 values as a ratio of that of NECA) | item: CCc1cc(C2OC(n3cnc4c(NC(CC)CC)nc(NC5CCNC5)nc43)C(O)C2O)on1 (stereo not shown) [Example 36]
Solution: >207

Exercise: Field request: A3 (EC50 values as a ratio of that of NECA) | item: CCc1cc(C2OC(n3cnc4c(NCc5ccccc5)nc(NCCN5CCCCC5)nc43)C(O)C2O)on1.O=CO.O=CO (stereo not shown) [Example 44]
Solution: >221

* * *

target: Adenosine 2a receptor (Homo sapiens, UniProt P29274); construct: expressed in transfected cells; host or cells: Chinese hamster ovary (CHO) cells, co-transfected with a CRE-SPAP reporter; test: Agonist activity against adenosine 2a receptor subtype (CHO cells, cAMP response element/SPAP reporter); assay type: cell-based; settings: EC50 ratio to NECA; transfected CHO cells, basal cAMP reflected by SPAP
Sequence (P29274 whole entry): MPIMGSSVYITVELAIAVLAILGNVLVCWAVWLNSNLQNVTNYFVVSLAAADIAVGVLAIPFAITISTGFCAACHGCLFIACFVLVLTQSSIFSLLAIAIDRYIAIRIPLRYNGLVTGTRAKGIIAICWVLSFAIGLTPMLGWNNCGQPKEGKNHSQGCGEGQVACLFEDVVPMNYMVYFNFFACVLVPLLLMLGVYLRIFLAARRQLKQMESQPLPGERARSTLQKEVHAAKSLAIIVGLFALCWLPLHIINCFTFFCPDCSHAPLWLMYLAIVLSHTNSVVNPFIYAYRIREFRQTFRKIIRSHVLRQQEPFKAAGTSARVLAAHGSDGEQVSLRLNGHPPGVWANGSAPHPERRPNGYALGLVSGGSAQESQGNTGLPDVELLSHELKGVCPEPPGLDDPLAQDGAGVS
readout label: A2a (EC50 values as a ratio of that of NECA)

| compound | assay result |
| --- | --- |
| CCc1cc(C2OC(n3cnc4c(NCC(c5ccccc5)c5ccccc5)nc(NCCNC(=N)N)nc43)C(O)C2O)on1 (stereo not shown) | 13.4 |

[a] CCc1cc(C2OC(n3cnc4c(NC5CCN(C(C)=O)CC5)nc(NC5CCC(N)CC5)nc43)C(O)C2O)on1 (stereo not shown)
[b] CCc1cc(C2OC(n3cnc4c(NC5CCN(C(C)=O)CC5)nc(NC(CO)Cc5ccccc5)nc43)C(O)C2O)on1 (stereo not shown)
[c] CCc1cc([C@H]2O[C@@H](n3cnc4c(NC5CCSCC5)nc(NCCN5CCCCC5)nc43)[C@H](O)[C@@H]2O)on1.O=CO.O=CO
Exercise: // ranking: key=A2a (EC50 values as a ratio of that of NECA), reverse=True Provide the labels, sequenced as the question asks.
Solution: b, a, c
(b: 14.5, a: 5.03, c: 3.39)
